For each of the compounds below, state its IC50.
# assay.target: Recombinant G2019S-LRRK2 protein (Homo sapiens, UniProt Q5S007, G2019S)
# Sequence (Q5S007 whole entry G2019S): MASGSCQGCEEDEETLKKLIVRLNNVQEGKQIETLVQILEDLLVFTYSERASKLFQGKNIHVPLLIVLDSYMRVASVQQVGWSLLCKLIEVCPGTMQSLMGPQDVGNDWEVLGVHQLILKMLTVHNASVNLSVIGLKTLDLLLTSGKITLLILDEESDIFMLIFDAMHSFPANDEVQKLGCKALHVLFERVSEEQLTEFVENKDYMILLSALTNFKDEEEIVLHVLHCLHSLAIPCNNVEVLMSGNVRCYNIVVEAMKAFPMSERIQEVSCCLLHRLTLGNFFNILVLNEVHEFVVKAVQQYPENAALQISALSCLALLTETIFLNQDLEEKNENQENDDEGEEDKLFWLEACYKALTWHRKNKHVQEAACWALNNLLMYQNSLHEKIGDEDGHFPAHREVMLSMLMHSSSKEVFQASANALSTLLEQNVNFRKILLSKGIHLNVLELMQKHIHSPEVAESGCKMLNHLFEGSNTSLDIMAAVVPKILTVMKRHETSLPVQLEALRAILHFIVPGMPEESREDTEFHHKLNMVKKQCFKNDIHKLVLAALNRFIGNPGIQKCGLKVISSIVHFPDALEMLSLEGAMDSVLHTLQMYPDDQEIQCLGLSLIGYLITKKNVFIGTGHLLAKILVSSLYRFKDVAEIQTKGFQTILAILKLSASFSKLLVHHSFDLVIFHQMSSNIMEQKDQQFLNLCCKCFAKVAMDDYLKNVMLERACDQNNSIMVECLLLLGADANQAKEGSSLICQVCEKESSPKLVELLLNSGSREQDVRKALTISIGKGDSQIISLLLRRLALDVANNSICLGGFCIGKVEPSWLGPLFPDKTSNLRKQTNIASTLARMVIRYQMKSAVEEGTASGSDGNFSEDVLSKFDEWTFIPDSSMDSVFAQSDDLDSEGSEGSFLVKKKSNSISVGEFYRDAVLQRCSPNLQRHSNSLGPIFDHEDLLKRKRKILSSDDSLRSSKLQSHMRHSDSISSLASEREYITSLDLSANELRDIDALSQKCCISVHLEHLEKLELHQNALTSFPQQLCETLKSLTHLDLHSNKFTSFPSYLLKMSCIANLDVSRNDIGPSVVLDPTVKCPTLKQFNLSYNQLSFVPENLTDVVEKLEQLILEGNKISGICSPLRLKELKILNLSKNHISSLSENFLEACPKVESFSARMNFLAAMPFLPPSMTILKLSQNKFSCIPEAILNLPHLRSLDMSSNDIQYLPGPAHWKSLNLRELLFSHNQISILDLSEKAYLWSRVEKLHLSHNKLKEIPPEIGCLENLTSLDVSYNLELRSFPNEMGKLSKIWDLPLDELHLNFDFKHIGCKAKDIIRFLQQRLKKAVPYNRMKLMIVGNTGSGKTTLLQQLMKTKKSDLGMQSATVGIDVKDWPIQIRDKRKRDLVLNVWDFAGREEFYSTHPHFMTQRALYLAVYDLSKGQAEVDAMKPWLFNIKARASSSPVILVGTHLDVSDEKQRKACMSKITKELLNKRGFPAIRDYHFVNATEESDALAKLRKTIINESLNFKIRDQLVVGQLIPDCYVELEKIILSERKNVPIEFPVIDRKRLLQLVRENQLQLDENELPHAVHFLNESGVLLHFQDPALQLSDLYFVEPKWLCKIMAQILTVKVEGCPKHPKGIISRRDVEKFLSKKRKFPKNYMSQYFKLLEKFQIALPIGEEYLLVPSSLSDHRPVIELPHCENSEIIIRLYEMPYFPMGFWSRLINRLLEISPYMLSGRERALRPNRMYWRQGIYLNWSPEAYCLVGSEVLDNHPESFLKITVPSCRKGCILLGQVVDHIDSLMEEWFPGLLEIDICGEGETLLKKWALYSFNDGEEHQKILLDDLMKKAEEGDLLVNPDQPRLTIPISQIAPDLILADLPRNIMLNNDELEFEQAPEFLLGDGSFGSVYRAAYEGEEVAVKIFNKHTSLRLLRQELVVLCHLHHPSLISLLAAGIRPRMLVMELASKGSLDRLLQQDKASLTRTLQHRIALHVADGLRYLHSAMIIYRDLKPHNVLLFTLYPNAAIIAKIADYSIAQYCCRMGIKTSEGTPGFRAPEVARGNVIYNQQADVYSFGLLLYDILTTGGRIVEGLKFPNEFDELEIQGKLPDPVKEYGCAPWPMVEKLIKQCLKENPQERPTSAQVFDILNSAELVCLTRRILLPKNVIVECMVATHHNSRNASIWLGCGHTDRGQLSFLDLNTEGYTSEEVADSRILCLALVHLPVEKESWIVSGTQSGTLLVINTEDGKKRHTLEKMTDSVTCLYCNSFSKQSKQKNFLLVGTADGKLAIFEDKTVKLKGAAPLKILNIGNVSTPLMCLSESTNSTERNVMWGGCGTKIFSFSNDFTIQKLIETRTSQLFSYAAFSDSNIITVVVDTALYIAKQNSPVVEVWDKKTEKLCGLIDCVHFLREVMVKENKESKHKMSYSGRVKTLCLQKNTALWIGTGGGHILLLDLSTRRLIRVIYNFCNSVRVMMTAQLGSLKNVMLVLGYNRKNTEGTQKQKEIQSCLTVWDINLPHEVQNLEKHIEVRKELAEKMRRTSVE
# measurement.description: LanthaScreen Kinase Activity Assay (TR-FRET), G2019S-LRRK2
# condition.info: class symbols; 25 μM ATP, 400 nM LRRKtide, 2.9 nM kinase, 60 min at room temperature

Recorded IC50, per entry:
# compound, IC50
data = [
    ("Cc1cc2cnsc2nc1C(=O)Nc1ccc2[nH]nc(-c3cnco3)c2c1 [Example 168]", "≤ 100 nM"),
    ("O=C(Nc1ccc2[nH]nc(-c3ccccc3)c2c1)c1cc2[nH]ncc2cc1Br [Example 24]", "≤ 100 nM"),
    ("Cc1cc2nn[nH]c2cc1C(=O)Nc1ccc2[nH]nc(-c3cccc(N4CCOCC4)c3)c2c1 [Example 2]", "≤ 100 nM"),
    ("Cc1ccccc1-c1n[nH]c2ccc(NC(=O)c3c(F)cc4c(cnn4C)c3F)cc12 [Example 77]", "1000 to 10000 nM"),
    ("O=C(Nc1ccc2[nH]nc(-c3ccoc3)c2c1)c1ccc2snnc2c1 [Example 121]", "≤ 100 nM"),
    ("CC1(C)c2nncn2CCN1C(=O)Nc1ccc2[nH]nc(-c3ccoc3)c2c1 [Example 172]", "100 to 1000 nM"),
    ("O=C(Nc1ccc2[nH]nc(-c3ccoc3)c2c1)c1ccc2ocnc2c1 [Example 126]", "≤ 100 nM"),
    ("Cc1cn2cncc2cc1C(=O)Nc1ccc2[nH]nc(-c3ccco3)c2c1 [Example 154]", "≤ 100 nM"),
]

Please give IC50, item by item, for the list that follows.
1. Cc1cc2cncn2cc1C(=O)Nc1ccc2[nH]nc(-c3ccoc3)c2c1 [Example 146]
2. Cn1ncc2cc(C(=O)Nc3ccc4[nH]nc(-c5cnco5)c4c3)ncc21 [Example 167]
3. Cn1ncc2c(F)c(C(=O)Nc3ccc4[nH]nc(NCc5ccccc5)c4c3)c(F)cc21 [Example 110]
4. Cn1ncc2c(F)c(C(=O)Nc3ccc4[nH]nc(-c5cocn5)c4c3)c(F)cc21 [Example 136]
5. Cn1ncc2c(F)c(C(=O)Nc3ccc4[nH]nc(-c5ccoc5)c4c3)c(F)cc21 [Example 28]
6. Cn1ncc2c(F)c(C(=O)Nc3ccc4[nH]nc(-c5ccccc5C#N)c4c3)c(F)cc21 [Example 74]
7. Cn1ncc2c(F)c(C(=O)Nc3cc4c(-c5ccoc5)n[nH]c4cc3F)c(F)cc21 [Example 144]
8. O=C(Nc1ccc2[nH]nc(-c3ccoc3)c2c1)c1cc2ncccc2s1 [Example 125]

Output:
≤ 100 nM
≤ 100 nM
≤ 100 nM
≤ 100 nM
≤ 100 nM
100 to 1000 nM
≤ 100 nM
≤ 100 nM

Please give IC50, item by item, for the list that follows.
1. Cn1ncc2c(F)c(C(=O)Nc3ccc4[nH]nc(C5=CCCO5)c4c3)c(F)cc21 [Example 72]
2. Cc1n[nH]c2ccc(NC(=O)c3c(Cl)cn4cnnc4c3Cl)cc12 [Example 56]

Output:
["100 to 1000 nM", "≤ 100 nM"]

----------
# assay.target: Recombinant G2019S-LRRK2 protein (Homo sapiens, UniProt Q5S007, G2019S)
# measurement.description: LanthaScreen Kinase Activity Assay (TR-FRET), G2019S-LRRK2
# condition.info: class symbols; 25 μM ATP, 400 nM LRRKtide, 2.9 nM kinase, 60 min at room temperature
For each of the compounds below, state its IC50.

Recorded IC50, per entry:
# compound, IC50
measured = [
    ("Cn1ncc2c(F)c(C(=O)Nc3ccc4[nH]nc(N5Cc6ccccc6C5)c4c3)c(F)cc21", "≤ 100 nM"),
    ("Cc1cc2[nH]nnc2c(C)c1C(=O)Nc1ccc2[nH]nc(C)c2c1", "100 to 1000 nM"),
    ("Cc1cc2nn[nH]c2cc1C(=O)Nc1ccc2[nH]nc(Br)c2c1", "≤ 100 nM"),
    ("O=C(Nc1ccc2[nH]nc(-c3ccoc3)c2c1)c1cnc2ccnn2c1", "100 to 1000 nM"),
    ("Cn1cc(-c2n[nH]c3ccc(NC(=O)c4c(F)cc5c(cnn5C)c4F)cc23)c(C(F)(F)F)n1", "≤ 100 nM"),
]

Please give IC50, item by item, for the list that follows.
1. Cc1cn2nc(C(=O)Nc3ccc4[nH]nc(-c5ccoc5)c4c3)cc2c(C)n1
2. O=C(Nc1ccc2[nH]nc(-c3ccoc3)c2c1)C1CCc2nncn2C1 (single isomer, unassigned) [Example 162a]

Output:
1: ≤ 100 nM; 2: ≤ 100 nM

Task: Fill in: IC50 of COc1cncc(-c2n[nH]c3ccc(NC(=O)c4c(F)cc5c(cnn5C)c4F)cc23)c1 is ___
Output: ≤ 100 nM

----------
# assay.target: Recombinant G2019S-LRRK2 protein (Homo sapiens, UniProt Q5S007, G2019S)
# Construct: purchased Life Technologies PV4881
# measurement.description: LanthaScreen Kinase Activity Assay (TR-FRET), G2019S-LRRK2
# Type: biochemical
# condition.info: class symbols; 25 μM ATP, 400 nM LRRKtide, 2.9 nM kinase, 60 min at room temperature
For each of the compounds below, state its IC50.

Recorded IC50, per entry:
# smiles.string, meas.value
data = [
    ("Cc1cc(-c2n[nH]c3ccc(NC(=O)c4c(F)cc5c(cnn5C)c4F)cc23)ccn1", "≤ 0.1 µM"),
    ("O=C(Nc1ccc2[nH]nc(-c3ccoc3)c2c1)c1ccc2ncsc2n1", "≤ 0.1 µM"),
    ("Cc1cc2cncn2cc1C(=O)Nc1ccc2[nH]nc(C)c2c1", "≤ 0.1 µM"),
    ("Cc1cc2c(C)nnn2c(C)c1C(=O)Nc1ccc2[nH]nc(C)c2c1", "0.1 to 1 µM"),
    ("Cc1cccc(-c2n[nH]c3ccc(NC(=O)c4c(C)cc5cnnn5c4C)cc23)c1C", "0.1 to 1 µM"),
]

Please give IC50, item by item, for the list that follows.
1. O=C(Nc1ccc2[nH]nc(-c3ccoc3)c2c1)c1ccc2nsnc2c1
2. COc1n[nH]c2ccc(NC(=O)c3c(F)cc4c(cnn4C)c3F)cc12
3. Cn1ncc2c(F)c(C(=O)Nc3ccc4[nH]nc(-c5ccccc5O)c4c3)c(F)cc21
4. O=C(Nc1ccc2[nH]nc(-c3ccoc3)c2c1)c1nc2cnccc2s1

Output:
1. ≤ 0.1 µM
2. ≤ 0.1 µM
3. 0.1 to 1 µM
4. ≤ 0.1 µM

----------
# assay.target: Recombinant wild type LRRK2 protein (Homo sapiens, UniProt Q5S007)
# Construct: purchased Life Technologies PR8604B
# Sequence (Q5S007 whole entry): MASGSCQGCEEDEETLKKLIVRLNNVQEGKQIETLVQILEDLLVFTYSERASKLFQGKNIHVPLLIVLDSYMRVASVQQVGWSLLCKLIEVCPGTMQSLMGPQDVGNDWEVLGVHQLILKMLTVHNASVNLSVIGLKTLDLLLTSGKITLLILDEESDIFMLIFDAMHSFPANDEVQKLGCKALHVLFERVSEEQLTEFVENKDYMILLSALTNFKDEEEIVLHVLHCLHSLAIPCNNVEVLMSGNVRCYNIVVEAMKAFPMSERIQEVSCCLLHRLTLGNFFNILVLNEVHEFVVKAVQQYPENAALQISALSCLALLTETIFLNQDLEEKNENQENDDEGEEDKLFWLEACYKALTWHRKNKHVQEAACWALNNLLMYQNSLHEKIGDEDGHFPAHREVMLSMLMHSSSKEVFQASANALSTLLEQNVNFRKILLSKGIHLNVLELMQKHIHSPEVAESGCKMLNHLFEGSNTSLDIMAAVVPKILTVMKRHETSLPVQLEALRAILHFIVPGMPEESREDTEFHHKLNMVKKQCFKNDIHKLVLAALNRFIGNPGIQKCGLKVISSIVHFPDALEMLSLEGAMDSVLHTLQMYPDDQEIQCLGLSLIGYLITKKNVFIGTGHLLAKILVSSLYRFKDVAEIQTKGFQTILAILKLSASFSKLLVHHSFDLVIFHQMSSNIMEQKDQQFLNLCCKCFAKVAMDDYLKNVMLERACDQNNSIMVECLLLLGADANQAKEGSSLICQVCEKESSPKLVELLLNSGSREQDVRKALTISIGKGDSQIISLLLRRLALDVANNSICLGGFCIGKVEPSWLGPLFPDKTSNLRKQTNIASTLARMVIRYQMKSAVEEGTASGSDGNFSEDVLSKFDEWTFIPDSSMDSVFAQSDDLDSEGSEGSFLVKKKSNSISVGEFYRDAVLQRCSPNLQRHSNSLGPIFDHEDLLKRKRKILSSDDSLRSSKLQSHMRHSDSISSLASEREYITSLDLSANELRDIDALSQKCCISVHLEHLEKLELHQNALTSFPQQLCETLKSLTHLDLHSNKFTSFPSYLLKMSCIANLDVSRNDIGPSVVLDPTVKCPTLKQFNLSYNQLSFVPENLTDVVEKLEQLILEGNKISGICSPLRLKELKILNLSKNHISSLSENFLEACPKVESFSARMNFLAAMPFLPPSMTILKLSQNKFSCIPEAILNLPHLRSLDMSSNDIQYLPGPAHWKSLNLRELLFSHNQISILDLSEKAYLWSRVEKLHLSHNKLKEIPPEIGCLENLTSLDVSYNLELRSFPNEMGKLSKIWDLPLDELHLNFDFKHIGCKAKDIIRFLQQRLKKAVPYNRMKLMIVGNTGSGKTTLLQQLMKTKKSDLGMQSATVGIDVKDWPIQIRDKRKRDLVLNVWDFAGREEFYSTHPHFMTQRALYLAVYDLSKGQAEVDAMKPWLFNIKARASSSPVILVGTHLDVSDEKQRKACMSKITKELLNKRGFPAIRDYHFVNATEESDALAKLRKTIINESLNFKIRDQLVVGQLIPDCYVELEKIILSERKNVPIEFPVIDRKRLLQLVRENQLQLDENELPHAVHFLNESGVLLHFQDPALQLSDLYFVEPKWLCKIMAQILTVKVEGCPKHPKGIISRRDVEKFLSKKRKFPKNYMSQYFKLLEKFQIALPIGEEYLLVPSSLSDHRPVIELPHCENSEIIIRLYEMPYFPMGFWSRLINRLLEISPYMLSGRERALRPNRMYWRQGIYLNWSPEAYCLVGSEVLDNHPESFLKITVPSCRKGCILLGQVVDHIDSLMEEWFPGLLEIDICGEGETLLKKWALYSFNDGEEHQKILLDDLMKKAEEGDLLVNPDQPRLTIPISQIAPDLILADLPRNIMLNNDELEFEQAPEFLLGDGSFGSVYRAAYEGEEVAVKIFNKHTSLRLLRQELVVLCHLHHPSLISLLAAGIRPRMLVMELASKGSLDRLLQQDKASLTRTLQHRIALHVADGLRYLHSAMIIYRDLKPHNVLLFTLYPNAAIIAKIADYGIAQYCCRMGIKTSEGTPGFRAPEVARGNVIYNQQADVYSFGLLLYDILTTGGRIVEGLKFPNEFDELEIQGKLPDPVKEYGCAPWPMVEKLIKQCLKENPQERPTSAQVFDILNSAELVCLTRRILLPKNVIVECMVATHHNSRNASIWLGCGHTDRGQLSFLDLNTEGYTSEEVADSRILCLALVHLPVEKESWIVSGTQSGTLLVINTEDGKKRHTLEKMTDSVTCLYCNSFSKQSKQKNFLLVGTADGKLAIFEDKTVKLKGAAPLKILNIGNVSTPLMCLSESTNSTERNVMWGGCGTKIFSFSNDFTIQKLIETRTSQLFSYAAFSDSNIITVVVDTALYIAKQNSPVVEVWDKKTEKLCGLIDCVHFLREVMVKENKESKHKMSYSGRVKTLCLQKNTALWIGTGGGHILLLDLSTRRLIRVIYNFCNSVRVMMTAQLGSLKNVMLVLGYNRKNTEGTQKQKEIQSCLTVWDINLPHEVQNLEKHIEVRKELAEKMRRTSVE
# measurement.description: LanthaScreen Kinase Activity Assay (TR-FRET), wild type LRRK2
# Type: biochemical
# condition.info: class symbols; 25 μM ATP, 400 nM LRRKtide, 2.9 nM kinase, 60 min at room temperature; read-out: LRRK2 WT IC50
experimental.endpoint: IC50

# smiles.string, IC50
records = [
    ("Cc1c(C(=O)Nc2ccc3[nH]nc(-c4ccccc4)c3c2)c(Cl)cn2cnnc12", "≤ 100 nM"),
    ("CN(C)c1cccc(-c2n[nH]c3ccc(NC(=O)c4c(F)cc5c(cnn5C)c4F)cc23)c1", "≤ 100 nM"),
    ("Cn1ncc2c(F)c(C(=O)Nc3ccc4[nH]nc(Cc5ccccc5)c4c3)c(F)cc21", "1000 to 10000 nM"),
    ("O=C(Nc1ccc2[nH]nc(-c3ccoc3)c2c1)c1ccc2cnsc2c1", "≤ 100 nM"),
    ("Cc1cc2cnsc2nc1C(=O)Nc1ccc2[nH]nc(-c3cnco3)c2c1", "≤ 100 nM"),
]

Please give IC50, item by item, for the list that follows.
1. Cc1cc2nn[nH]c2cc1C(=O)Nc1ccc2[nH]nc(Br)c2c1
2. O=C(Nc1ccc2[nH]nc(-c3ccoc3)c2c1)c1ccc2ncsc2n1
3. Cc1nocc1-c1n[nH]c2ccc(NC(=O)c3c(F)cc4c(cnn4C)c3F)cc12
4. O=C(Nc1ccc2[nH]nc(-c3ccccc3)c2c1)c1c(Cl)cn2cnnc2c1Cl
5. Cc1cc2cn[nH]c2cc1C(=O)Nc1ccc2[nH]nc(-c3ccccc3)c2c1

Output:
["1000 to 10000 nM", "≤ 100 nM", "100 to 1000 nM", "≤ 100 nM", "≤ 100 nM"]

----------
# assay.target: Recombinant wild type LRRK2 protein (Homo sapiens)
# Construct: purchased Life Technologies PR8604B
# measurement.description: LanthaScreen Kinase Activity Assay (TR-FRET), wild type LRRK2
# Assay type: biochemical
# condition.info: class symbols; 25 μM ATP, 400 nM LRRKtide, 2.9 nM kinase, 60 min at room temperature; read-out: LRRK2 WT IC50
experimental.endpoint: IC50

# compound, IC50
records = [
    ("Cc1cc2[nH]cnc2cc1C(=O)Nc1ccc2[nH]nc(-c3ccccc3)c2c1 [Example 19]", "0.1 to 1 µM"),
    ("Cn1cc(-c2n[nH]c3ccc(NC(=O)c4c(F)cc5c(cnn5C)c4F)cc23)c(C(F)(F)F)n1 [Example 92]", "0.1 to 1 µM"),
    ("Cc1cc2[nH]ncc2cc1C(=O)Nc1ccc2[nH]nc(-c3ccccc3)c2c1 [Example 21]", "≤ 0.1 µM"),
]

Please give IC50, item by item, for the list that follows.
1. Cc1cc2nn(C)nc2cc1C(=O)Nc1ccc2[nH]nc(C)c2c1 [Example 3]
2. Cn1ncc2c(F)c(C(=O)Nc3ccc4[nH]nc(N5CCCC5)c4c3)c(F)cc21 [Example 108]
3. Cc1cc2c(C)nnn2c(C)c1C(=O)Nc1ccc2[nH]nc(-c3ccccc3)c2c1 [Example 64]
4. Cc1ccc(-c2n[nH]c3ccc(NC(=O)c4c(F)cc5c(cnn5C)c4F)cc23)s1 [Example 97]

Output:
["1 to 10 µM", "1 to 10 µM", "0.1 to 1 µM", "≤ 0.1 µM"]

Please give IC50, item by item, for the list that follows.
1. Cn1ncc2c(F)c(C(=O)Nc3ccc4[nH]nc(-c5ccncn5)c4c3)c(F)cc21 [Example 73]
2. Cn1ncc2c(F)c(C(=O)Nc3ccc4[nH]nc(-c5cccnc5)c4c3)c(F)cc21 [Example 32]
3. Cc1cc2cc[nH]c2cc1C(=O)Nc1ccc2[nH]nc(-c3ccccc3)c2c1 [Example 22]
4. Cn1cc(-c2n[nH]c3ccc(NC(=O)c4c(F)cc5c(cnn5C)c4F)cc23)cn1 [Example 35]

Output:
1: ≤ 0.1 µM; 2: ≤ 0.1 µM; 3: 1 to 10 µM; 4: ≤ 0.1 µM

Please give IC50, item by item, for the list that follows.
1. Cn1ncc2cc(C(=O)Nc3ccc4[nH]nc(-c5ccccc5)c4c3)ccc21 [Example 107]
2. Cc1c(C(=O)Nc2ccc3[nH]nc(-c4ccccc4)c3c2)ccn2nncc12 [Example 149]
3. COc1ccc(C)c(-c2n[nH]c3ccc(NC(=O)c4c(F)cc5c(cnn5C)c4F)cc23)c1 [Example 90]
4. Cc1cccc(-c2n[nH]c3ccc(NC(=O)c4c(C)cc5cnnn5c4C)cc23)c1C [Example 47]

Output:
1. 1 to 10 µM
2. ≤ 0.1 µM
3. 1 to 10 µM
4. 1 to 10 µM

Please give IC50, item by item, for the list that follows.
1. Cn1cnc2ccc(C(=O)Nc3ccc4[nH]nc(-c5ccoc5)c4c3)cc21 [Example 131]
2. O=C(Nc1ccc2[nH]nc(-c3ccoc3)c2c1)c1cc2ncccc2s1 [Example 125]
3. Cn1ncc2nc(C(=O)Nc3ccc4[nH]nc(-c5cnco5)c4c3)ccc21 [Example 165]
4. Cc1cc2[nH]ccc2cc1C(=O)Nc1ccc2[nH]nc(-c3ccccc3)c2c1 [Example 20]
5. Cc1cc2cnnn2c(C)c1C(=O)Nc1ccc2[nH]nc(C)c2c1 [Example 49]

Output:
≤ 0.1 µM
0.1 to 1 µM
0.1 to 1 µM
0.1 to 1 µM
1 to 10 µM
